test system: EKVX NSCLC; test: NCI-60 one-dose screen, 48 h (100 = growth as untreated, 0 = no growth, -100 = all killed); conditions: 10 µM unless noted
Compounds without any hit were thinned out: in the full panel of roughly 83,000, 20% have a hit.
measurement_label: growth (%)

molecule | measurement_target | measurement_label | measurement
CN(C)C(=O)c1cc2cnc(Nc3ccc(-c4csc5c(=O)cc(N6CCNCC6)oc45)cc3)nc2n1C1CCCC1 | EKVX NSCLC | growth | 40.2
O=C(COCc1c(-c2ccccc2)no[n+]1[O-])Nc1ccc(C(=O)/C=C/c2ccc3c(c2)OCO3)cc1 | EKVX NSCLC | growth | 108
COc1cc2c(c(OC)c1OC)-c1ccc(N=NC(N)=S)c(=O)cc1[C@@H](NC(C)=O)CC2 | EKVX NSCLC | growth | 52.4
CCN(CC)CC(O)CNc1c2ccc([N+](=O)[O-])cc2nc2cc(OC)c(OC)cc12 (stereo not given) | EKVX NSCLC | growth | -27.4
CCC(c1ccc(O)cc1)C(CC)c1ccc(O)c(F)c1 (stereo not given) | EKVX NSCLC | growth | 84.2

----------
Tested on: HCC-2998 colon
Assay: NCI-60 one-dose screen, 48 h (100 = growth as untreated, 0 = no growth, -100 = all killed)
Conditions: 10 µM unless noted
Procedure: Growth inhibition of the HCC-2998 human tumor cell line is measured as a screen for anti-cancer activity. Cells are grown in 96 well plates and exposed to the test compound for 48 hours. Compounds are tested at a single concentration, which is 10^-5 M for most compounds. The reported endpoint is percent growth (GI% or GIPRCNT), where numbers from 0 - 100% represent growth inhibition, and numbers from -100% - 0 represent cell death. For example, a value of 40 represents 60% growth inhibition. […]
Compounds without any hit were thinned out: in the full panel of roughly 83,000, 20% have a hit. Active and inactive are the calls of the source. Rule for the calls: active = growth percent below 10; inactive = the rest.
Listed here are compounds together with their documented growth.
measurement_label: growth

compound | measurement
O=C(/C=C\c1ccc2ccccc2n1)c1cc(Cl)ccc1O | 84.4% (inactive)
CN(C)c1ccc(C2Nc3ccccc3-n3cccc32)cc1 (stereo not given) | 85.2% (inactive)
Cc1nn(-c2nc3ccccc3[nH]2)c2c1C(c1ccc3c(c1)OCO3)CC(=O)N2 (stereo not given) | 63.6% (inactive)
CC(C)[C@@H]1CC[C@]2(C(=O)NCCCCN=C(N)N)CC[C@]3(C)[C@H](CC[C@@H]4[C@@]5(C)CCC(=O)C(C)(C)[C@@H]5CC[C@]43C)[C@@H]12 | 53.7% (inactive)
C=C1CCC2C3(C)COC(c4cccc(Cl)c4)OC3CCC2(C)C1/C=C/C1=CCOC1=O (stereo not given) | 39.9% (inactive)
CCOC(=O)C(CC)n1c(=O)c2cc(OC)c(OC)cc2c2cnc3[nH]ccc3c21 (stereo not given) | 83.4% (inactive)
CC[C@@H](C)OC(=O)c1nn(C(C)=O)c2ccccc12 | 96.4% (inactive)
COc1cc(-c2cnc3nonc3n2)c(OC)c2c1OCO2 | 102% (inactive)
CC[n+]1ccc2c(c1)C(=O)c1nccc3c1c-2nc1ccccc13 | -21% (active)
COc1ccc(C2Nc3ccccc3-n3cccc32)cc1 (stereo not given) | 103% (inactive)

----------
test system: EKVX NSCLC; assay: NCI-60 one-dose screen, 48 h (100 = growth as untreated, 0 = no growth, -100 = all killed); conditions: 10 µM unless noted
The panel holds about 83,000 compounds, 20% with a hit somewhere; the sample as a whole holds those more often.
So basically: is growth under 70%? Then YES. Not under? Then NO.

molecule | category_label
O=c1ccc2cc3ccccc3cc2[nH]1 | YES
O=C1C[C@H](Sc2nc(-c3ccc(F)cc3)cc(C(F)(F)F)n2)[C@H]2CO[C@@H]1O2 | NO
CCOC(=O)c1c2c(n3ccc(NC(=O)CCN4CCOCC4)cc13)C(=O)c1ncccc1C2=O | YES
CCCCCC(=O)Oc1ccc(/C(=C(\C)c2ccccc2)c2ccc(OCCN(CC)CC)cc2)cc1 | NO
CCCCCCCCCc1cc(CN2CCCCC2)c(O)c(CN2CCCCC2)c1 | YES
Cc1nc2nc(N)nc(N)c2nc1C | NO
Oc1cccc(Nc2nccc(-c3ccc4ccccc4c3)n2)c1 | YES
COc1ccc(-n2cc(-c3ccccc3)c3c(SCC(=O)N/N=C/c4ccc([N+](=O)[O-])cc4)ncnc32)cc1 | NO
Cn1c(=O)c2[nH]c(C(O)C(O)C(O)C(O)CO)nc2n(C)c1=O (stereo not given) | NO
